The origin of these recorded values is ChEMBL document CHEMBL2176918.

Test Method Notes: Intrinsic clearance in dog hepatocytes assessed as parent compound disappearance at 1 uM per 10^6 cells
Assay type: ADME, cell-based, Canis lupus familiaris, Hepatocyte
Condition Info: read-out: CLH
Readout Kind: hepatocyte CLint at 1 µM (µL/min/1e6 cells)
Write the value in µL/min/1e6 cells as a bare number.

Quick one: hepatocyte CLint at 1 µM for Cc1nc(C)c(-c2ccc(C3CCC(CC(=O)O)CC3)cc2)nc1C(N)=O (stereo unspecified) ?
5.5

* * *

Test System: Diacylglycerol O-acyltransferase 1 (Homo sapiens, UniProt O75907)
Sequence (O75907 whole entry): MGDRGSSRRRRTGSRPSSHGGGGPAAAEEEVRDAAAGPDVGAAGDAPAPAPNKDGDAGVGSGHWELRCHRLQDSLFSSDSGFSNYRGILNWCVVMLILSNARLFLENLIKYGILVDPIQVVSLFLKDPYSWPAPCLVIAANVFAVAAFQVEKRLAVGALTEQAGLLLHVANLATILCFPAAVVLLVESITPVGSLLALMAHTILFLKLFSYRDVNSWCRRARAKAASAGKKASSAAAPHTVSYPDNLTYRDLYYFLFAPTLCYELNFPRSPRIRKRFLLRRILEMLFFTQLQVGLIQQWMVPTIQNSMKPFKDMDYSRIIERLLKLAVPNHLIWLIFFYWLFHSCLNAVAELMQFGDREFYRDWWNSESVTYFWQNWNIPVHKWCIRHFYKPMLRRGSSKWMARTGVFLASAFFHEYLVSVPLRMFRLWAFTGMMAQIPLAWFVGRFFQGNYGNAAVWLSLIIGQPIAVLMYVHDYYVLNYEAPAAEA
Readout Kind: IC50 (nM)
Numeric only. Scale: nM

Field request: IC50 | item: NC(=O)C[C@H]1CC[C@H](c2ccc(-c3cncc(C(N)=O)n3)cc2)CC1
1900

How about this compound: NC(=O)c1cncc(-c2ccc([C@H]3CC[C@H](CCO)CC3)cc2)n1
1200

Same read-out for Cc1ncc(C(N)=O)nc1-c1ccc([C@H]2CC[C@H](CC(=O)O)CC2)cc1 ?
310

Entry to check: CC(C)(NC(=O)C[C@H]1CC[C@H](c2ccc(-c3cncc(C(N)=O)n3)cc2)CC1)C(=O)O
1100

Would you kindly repeat that for Cc1nc(C)c(-c2ccc([C@H]3CC[C@@H](CC(=O)O)CC3)cc2)nc1C(N)=O ?
430

Try this compound next: Cc1nc(C)c(-c2ccc(C34CCC(C(=O)O)(CC3)CC4)cc2)nc1C(N)=O
80

Could you do the same for NC(=O)c1cncc(-c2ccc([C@H]3CC[C@H](CC(=O)O)CC3)cc2)n1 , please?
1900

Repeat with Cc1nc(C)c(-c2ccc([C@H]3CC[C@H](CC(=O)NC(C)(C)C(=O)O)CC3)cc2)nc1C(N)=O
110

Same thing, different compound: Cc1nc(C)c(-c2ccc(C3CCC(CC(=O)O)CC3)cc2)nc1C(N)=O (centres undefined)
80

Now this one: Cc1nc(C)c(-c2ccc3c(c2)CC[C@]32CC[C@@H](CC(=O)O)CC2)nc1C(N)=O
30

How about Cc1nc(C)c(-c2ccc([C@H]3CC[C@H](CCO)CC3)cc2)nc1C(N)=O ?
690

Proceed to Cc1nc(C)c(-c2ccc([C@H]3CC[C@H](CC(=O)NS(C)(=O)=O)CC3)cc2)nc1C(N)=O
100
